Biological target: GDP-bound KRAS wild-type protein (Homo sapiens, UniProt P01116)
Sequence (P01116 whole entry): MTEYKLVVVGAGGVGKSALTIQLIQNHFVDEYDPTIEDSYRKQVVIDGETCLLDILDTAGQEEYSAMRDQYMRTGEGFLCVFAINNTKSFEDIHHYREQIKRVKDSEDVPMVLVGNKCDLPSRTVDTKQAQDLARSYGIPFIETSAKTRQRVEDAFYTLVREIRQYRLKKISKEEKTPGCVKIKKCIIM
Assay: Binding to KRAS by surface plasmon resonance (SPR), Single Cycle Kinetics
Conditions: SPR, Single Cycle Kinetics, GDP-bound KRAS wild-type protein; read-out: KRAS KD
pKd values for the compounds below.
Please report pKd as the negative decimal logarithm of the molar concentration, giving only the number.

Problem: If you can, please state the reported pKd value of CCO[C@@H]1C[C@H]2C(=O)NC3(CCC3)C(=O)N(C)[C@@H](C3CCCC3)C(=O)N[C@H](C(=O)N(C)C)CC(=O)N(C)[C@@H](CC)C(=O)N[C@@H]([C@@H](C)CC)C(=O)N(C)CC(=O)N(C)[C@H]3C/C=C\CCN(C3=O)[C@@H](Cc3ccc(C(F)(F)F)cc3)C(=O)N(C)CC(=O)N[C@@H](CCc3cc(F)c(C(F)(F)F)c(F)c3)C(=O)N2C1 [PP1094] .
Solution: 9.08

We now examine a further compound.
Problem: If you can, please state the reported pKd value of CCO[C@@H]1C[C@H]2C(=O)NC3(CCC3)C(=O)N(C)[C@@H](C3CCCC3)C(=O)N(C)[C@H](C(=O)N(C)CC)CC(=O)N(C)[C@@H](CC)C(=O)N[C@@H]([C@@H](C)CC)C(=O)N(C)CC(=O)N(C)[C@H]3C/C=C\CCN(C3=O)[C@@H](Cc3ccc(C)cc3)C(=O)N(C)CC(=O)N[C@@H](CCc3ccc(C(F)(F)F)c(OC)c3)C(=O)N2C1 [PP1869] .
Solution: 9.89

----------
Target: GDP-bound KRAS wild-type protein (Homo sapiens)
Experiment: Binding to KRAS by surface plasmon resonance (SPR), Single Cycle Kinetics
Conditions: SPR, Single Cycle Kinetics, GDP-bound KRAS wild-type protein; read-out: KRAS KD
Where a SMILES comes first, the peptide text is derived from it. Bridges are numbered along the chain shown (N, C = ends). [ ]: non-standard residue; d: D form. The star is where a group is joined. hPhe(3-Cl-4-CF3) = N[C@@H](CCc1ccc(C(F)(F)F)c(Cl)c1)C(=O)O; NPrPhe(4-CF3) = CCCN[C@@H](Cc1ccc(C(F)(F)F)cc1)C(=O)O; NMeGly(cPent) = CN[C@H](C(=O)O)C1CCCC1; NMeD = CN[C@@H](CC(=O)O)C(=O)O; NMeNva = CCC[C@H](NC)C(=O)O; Morpholide = C1CN(*)CCO1; Ac4c = NC1(C(=O)O)CCC1; NPrGly = CCCNCC(=O)O; Sar = CNCC(=O)O
parameter: Kd (nM)
Numeric answer only, unit nM assumed.

Use these answered entries as a reference point.
Problem: If you can, please state the reported Kd value of CCC[C@H]1C(=O)N[C@@H]([C@@H](C)CC)C(=O)N(C)CC(=O)N(CCC)CC(=O)N(CCC)[C@@H](Cc2ccc(C(F)(F)F)cc2)C(=O)N(C)CC(=O)N[C@@H](CCc2ccc(C(F)(F)F)c(Cl)c2)C(=O)N2CCC[C@H]2C(=O)NC2(CCC2)C(=O)N(C)[C@@H](C2CCCC2)C(=O)N(C)[C@H](C(=O)N2CCOCC2)CC(=O)N1C [PP1949] ([NMeNva]I[Sar][NPrGly][NPrPhe(4-CF3)][Sar][hPhe(3-Cl-4-CF3)]P[Ac4c][NMeGly(cPent)][NMeD]-Morpholide; lactam N-11) .
Solution: 0.92

Problem: If you can, please state the reported Kd value of `CCO[C@@H]1C[C@H]2C(=O)NC3(CCC3)C(=O)N(C)[C@@H](C3CCCC3)C(=O)N(C)[C@H](C(=O)N(C)C)CC(=O)N(C)[C@@H](CC)C(=O)N[C@@H]([C@@H](C)CC)C(=O)N(C)CC(=O)N(C)[C@H]3C[C@@H](C)CCN(C3=O)[C@@H](Cc3ccc(C(F)(F)F)cc3)C(=O)N(C)CC(=O)N[C@@H](CCc3cc(F)c(C(F)(F)F)c(F)c3)C(=O)N2C1` .
Solution: 0.022

We now examine a further compound.
Problem: If you can, please state the reported Kd value of `CCO[C@@H]1C[C@H]2C(=O)NC3(CCC3)C(=O)N(C)[C@@H](C3CCCC3)C(=O)N(C)[C@H](C(=O)N(C)C)CC(=O)N(C)[C@@H](CC)C(=O)N[C@@H]([C@@H](C)CC)C(=O)N(C)CC(=O)N(C)[C@H]3CCCCCN(C3=O)[C@@H](Cc3ccc(F)cc3C)C(=O)N(C)CC(=O)N[C@@H](CCc3cc(F)c(C(F)(F)F)c(F)c3)C(=O)N2C1` .
Solution: 0.06

----------
Test system: human lung cancer strain NCI-H441;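 further: cell proliferation inhibition after four days measured by CellTiter-Glo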
Assay: cells
Conditions: NCI-H441, 96 h, read-out: NCI-H441 IC50 (nM), NCI-H441 cell proliferation, 4 days, CellTiter-Glo
parameter: IC50 (nM)
Numeric answer only, unit nM assumed.

Use these answered entries as a reference point.
Problem: If you can, please state the reported IC50 value of CCCOC[C@H]1C(=O)N[C@@H]([C@@H](C)CC)C(=O)N(C)CC(=O)N(C)[C@H]2C/C=C\CCN(C2=O)[C@@H](Cc2ccc(C(F)(F)F)cc2)C(=O)N(C)CC(=O)N[C@@H](CCc2ccc(C(F)(F)F)c(Cl)c2)C(=O)N2C[C@H](OCC)C[C@H]2C(=O)NC2(CC(C)(C)C2)C(=O)N(C)[C@@H](C2CCCC2)C(=O)N(C)[C@H](C(=O)N(C)C)CC(=O)N1C [PP1754] .
Solution: 3

Problem: If you can, please state the reported IC50 value of CCCN(C)C(=O)[C@@H]1CC(=O)N(C)[C@@H](CC(C)C)C(=O)N[C@@H]([C@@H](C)CC)C(=O)N(C)CC(=O)N(C)[C@H]2C/C=C\CCN(C2=O)[C@@H](Cc2ccc(C(F)(F)F)cc2)C(=O)N(C)CC(=O)N[C@@H](CCc2cc(F)c(C(F)(F)F)c(F)c2)C(=O)N2C[C@H](OCC)C[C@H]2C(=O)NC2(COC2)C(=O)N(C)[C@@H](C2CCCC2)C(=O)N1C [PP1938] .
Solution: 34.6

We now examine a further compound.
Problem: If you can, please state the reported IC50 value of CCC[C@H]1C(=O)N[C@@H]([C@@H](C)CC)C(=O)N(C)CC(=O)N(C)[C@H]2C/C=C\CCN(C2=O)[C@@H](Cc2ccc(C(F)(F)F)cc2)C(=O)N(C)CC(=O)N[C@@H](CCc2ccc(C(F)(F)F)c(OC)c2)C(=O)N2C[C@H](OCC)C[C@H]2C(=O)NC2(CC(C)(C)C2)C(=O)N(C)[C@@H](C2CCCC2)C(=O)N(C)[C@H](C(=O)N(C)CC)CC(=O)N1C [PP1676] .
Solution: 5

----------
Kd values for the molecules below.
Target: GDP-bound KRAS wild-type protein (Homo sapiens)
Experiment: Binding to KRAS by surface plasmon resonance (SPR), Single Cycle Kinetics
Conditions: SPR Single Cycle Kinetics, GDP-bound KRAS wild-type protein, 1:1 binding model; read-out: KRAS KD
Where a SMILES comes first, the peptide text is derived from it. Bridges are numbered along the chain shown (N, C = ends). [ ]: non-standard residue; d: D form. The star is where a group is joined. hPhe(3-Cl-4-CF3) = N[C@@H](CCc1ccc(C(F)(F)F)c(Cl)c1)C(=O)O; NPrPhe(4-CF3) = CCCN[C@@H](Cc1ccc(C(F)(F)F)cc1)C(=O)O; NMeGly(cPent) = CN[C@H](C(=O)O)C1CCCC1; NMeD = CN[C@@H](CC(=O)O)C(=O)O; NMeL = CN[C@@H](CC(C)C)C(=O)O; Morpholide = C1CN(*)CCO1; Ac5c = NC1(C(=O)O)CCCC1; Aze = O=C(O)[C@@H]1CCN1; NEtG = CCNCC(=O)O; Sar = CNCC(=O)O
Numeric answer only, unit nM assumed.

Use these answered entries as a reference point.
Problem: Recall the recorded Kd for CCCN1C(=O)[C@@H]2CCN2C(=O)CN(CC)C(=O)[C@H]([C@@H](C)CC)NC(=O)[C@H](CC(C)C)N(C)C(=O)C[C@@H](C(=O)N2CCOCC2)N(C)C(=O)[C@H](C2CCCC2)N(C)C(=O)C2(CCCC2)NC(=O)[C@@H]2CCCN2C(=O)[C@H](CCc2ccc(C(F)(F)F)c(Cl)c2)NC(=O)CN(C)C(=O)[C@@H]1Cc1ccc(C(F)(F)F)cc1 [PP0259] ([NMeL]I[NEtG][Aze][NPrPhe(4-CF3)][Sar][hPhe(3-Cl-4-CF3)]P[Ac5c][NMeGly(cPent)][NMeD]-Morpholide; lactam N-11) with GDP-bound KRAS wild-type protein (Homo sapiens) and state it.
Solution: 0.42

Problem: Recall the recorded Kd for CCO[C@@H]1C[C@H]2C(=O)NC3(CCC3)C(=O)N(C)[C@@H](CC(C)(C)C)C(=O)N(C)[C@H](C(=O)N3CCCC3)CC(=O)N(C)[C@@H](CC)C(=O)N[C@@H]([C@@H](C)CC)C(=O)N(C)CC(=O)N(C)[C@H]3C/C=C\CCN(C3=O)[C@@H](CC3CCCCC3)C(=O)N(C)CC(=O)N[C@@H](CCc3cc(F)c(C(F)(F)F)c(F)c3)C(=O)N2C1 [PP2772] with GDP-bound KRAS wild-type protein (Homo sapiens) and state it.
Solution: 0.43

We now examine a further molecule.
Problem: Recall the recorded Kd for CCCN1C(=O)CN(C)C(=O)CN(C)C(=O)[C@H]([C@@H](C)CC)NC(=O)[C@H](CC(C)C)N(C)C(=O)C[C@@H](C(=O)N(C)C)N(C)C(=O)[C@H](C2CCCC2)N(C)C(=O)C2(CCCC2)NC(=O)[C@@H]2CCCN2C(=O)[C@H](CCc2ccc(C(F)(F)F)c(Cl)c2)NC(=O)CN(C)C(=O)[C@@H]1Cc1ccc(C(F)(F)F)cc1 [PP0169] ([NMeL]I[Sar][Sar][NPrPhe(4-CF3)][Sar][hPhe(3-Cl-4-CF3)]P[Ac5c][NMeGly(cPent)][NMeD]-NMe2; lactam N-11) with GDP-bound KRAS wild-type protein (Homo sapiens) and state it.
Solution: 0.035
